Molecular target: human TRPM8 (Homo sapiens, UniProt Q7Z2W7)
Construct: expressed in transfected cells; host or cells: Chinese hamster ovary (CHO) cells, T-REx tetracycline-inducible expression system (Invitrogen); co-transfected with pcDNA3.1 aequorin
Sequence (Q7Z2W7 whole entry): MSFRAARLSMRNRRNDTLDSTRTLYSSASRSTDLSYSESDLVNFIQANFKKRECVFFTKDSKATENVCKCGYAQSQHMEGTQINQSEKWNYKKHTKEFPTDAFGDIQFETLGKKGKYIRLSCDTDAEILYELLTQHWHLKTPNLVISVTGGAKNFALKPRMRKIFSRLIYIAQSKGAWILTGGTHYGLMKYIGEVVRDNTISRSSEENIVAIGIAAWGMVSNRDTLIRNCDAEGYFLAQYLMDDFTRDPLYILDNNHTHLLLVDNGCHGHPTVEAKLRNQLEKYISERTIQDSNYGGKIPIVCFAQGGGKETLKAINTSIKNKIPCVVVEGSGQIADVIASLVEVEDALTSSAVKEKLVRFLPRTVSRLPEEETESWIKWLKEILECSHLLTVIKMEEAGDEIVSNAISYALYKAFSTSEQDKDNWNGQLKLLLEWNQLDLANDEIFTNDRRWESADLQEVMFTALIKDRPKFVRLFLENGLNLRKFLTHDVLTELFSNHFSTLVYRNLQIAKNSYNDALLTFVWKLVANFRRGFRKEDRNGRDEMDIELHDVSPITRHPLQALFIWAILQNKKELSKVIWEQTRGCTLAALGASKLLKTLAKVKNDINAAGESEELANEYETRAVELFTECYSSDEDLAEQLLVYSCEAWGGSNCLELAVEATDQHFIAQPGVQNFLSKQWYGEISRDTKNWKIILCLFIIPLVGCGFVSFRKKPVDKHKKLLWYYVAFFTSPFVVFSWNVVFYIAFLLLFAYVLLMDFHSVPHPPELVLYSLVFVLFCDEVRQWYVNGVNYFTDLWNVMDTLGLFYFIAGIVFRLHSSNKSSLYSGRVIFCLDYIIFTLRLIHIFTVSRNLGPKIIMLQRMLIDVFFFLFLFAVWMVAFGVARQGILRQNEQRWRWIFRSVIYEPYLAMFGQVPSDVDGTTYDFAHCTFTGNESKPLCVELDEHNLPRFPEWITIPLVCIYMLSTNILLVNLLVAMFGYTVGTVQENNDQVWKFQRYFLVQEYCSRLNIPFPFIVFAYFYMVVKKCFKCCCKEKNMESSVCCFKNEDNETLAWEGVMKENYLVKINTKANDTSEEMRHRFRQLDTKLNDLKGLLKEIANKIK
Assay: Luminescence readout assay for measuring intracellular calcium (aequorin, CHO cells expressing human TRPM8; icilin, L-menthol or cold activation)
Format: cell-based
Conditions: CHO cells expressing human TRPM8, icilin activation (1 μM), aequorin luminescence; read-out: hTRPM8 IC50
Counter-ions that a name gives are not always drawn.
Please respond with reported IC50 for every item in the list.
One number for each entry, in µM.

Check out these entries, answers already filled in.
COMPOUND	U	IC50
O=C(N[C@]1(c2ccc(OC(F)(F)F)cc2)CCOc2cccnc21)c1cc2cccnc2[nH]1 [Example 216, formate]	µM	0.27
O=C(N[C@]1(c2ccc(OC(F)(F)F)cc2)CCOc2cccnc21)c1cc2ccccc2s1 [Example 267, formate]	µM	0.037
O=C(Nc1cccc(F)c1)N[C@]1(c2ccc(C(F)(F)F)cc2)CCOc2cccnc21	µM	0.112
Cn1ncc2c(C(=O)N[C@]3(c4ccc(OC(F)(F)F)cc4)CCOc4cccnc43)cccc21 [Example 261, formate]	µM	0.032
O=C(NC1(c2ccccc2)CCOc2cccnc21)c1ccccc1 (centres unmarked)	µM	2.07
O=C(N[C@]1(c2ccc(OC(F)(F)F)c(F)c2)CCOc2cccnc21)N1CCOCC1	µM	0.76

Working through the 5 compounds below one at a time, give IC50 for each.
1. O=C(N[C@]1(c2ccc(OC(F)(F)F)cc2)CCOc2cccnc21)c1cocn1 [Example 226, formate]
2. C[C@@H](O)Cn1cc(C(=O)N[C@]2(c3ccc(OC(F)(F)F)c(F)c3)CCOc3cccnc32)ccc1=O
3. N#Cc1ccc(NC(=O)N[C@]2(c3ccc(OC(F)(F)F)c(F)c3)CCOc3cccnc32)cc1
4. CC(=O)c1ccc(C(=O)N[C@]2(c3ccc(OC(F)(F)F)c(F)c3)CCOc3cccnc32)cc1
5. O=C(Nc1cnccc1Br)N[C@]1(c2ccc(OC(F)(F)F)c(F)c2)CCOc2cccnc21

## Result
1. 0.15
2. 0.027
3. 0.023
4. 0.008
5. 0.23
